Attribution: the supplement of paper PMC13380429

test system: Vero E6 infected with SARS-CoV-2; experiment: SARS-CoV-2 infection rate relative to infected DMSO; higher = more infection, active = 60 or less; settings: 24 h
# SARS-CoV-2 infection rate annotations
assay.metric: SARS-CoV-2 infection rate (%)

[
  {
    "compound": "OC(c1cc(C(F)(F)F)nc2c(C(F)(F)F)cccc12)C1CCCCN1 (centres undefined) [mefloquine] (0.833333 µM)",
    "endpoint.value": 112
  },
  {
    "compound": "N#Cc1cc(-c2n[nH]c(-c3ccncc3)n2)ccn1 [topiroxostat] (10 µM)",
    "endpoint.value": 94.5
  },
  {
    "compound": "CCN(CC)c1ccc(/C=N/NC(=O)c2ccc(O)cc2)cc1 (10 µM)",
    "endpoint.value": 107
  },
  {
    "compound": "Cn1c(C#N)ccc1-c1ccc2c(c1)C(C)(C)OC(=S)N2 [tanaproget] (10 µM)",
    "endpoint.value": 102
  },
  {
    "compound": "CC(C)Cc1ccc(C(C)C(=O)O)cc1 (centres undefined) [ibuprofen] (10 µM)",
    "endpoint.value": 108
  },
  {
    "compound": "CC1(C)[C@@H](OC(=O)CCC(=O)O)CC[C@]2(C)[C@H]3C(=O)C=C4[C@@H]5C[C@@](C)(C(=O)O)CC[C@]5(C)CC[C@@]4(C)[C@]3(C)CC[C@@H]12 (10 µM)",
    "endpoint.value": 106
  },
  {
    "compound": "O=C(Nc1ccccc1Br)N[C@@H]1CCN(c2ccc(C(F)(F)F)cn2)C1 (10 µM)",
    "endpoint.value": 94.5
  },
  {
    "compound": "CCCN(CCC)S(=O)(=O)c1ccc(C(=O)O)cc1 [probenecid] (10 µM)",
    "endpoint.value": 106
  },
  {
    "compound": "O=c1ccc2ccccc2o1 [coumarin] (10 µM)",
    "endpoint.value": 89.5
  }
]

###

tested on: Vero E6 infected with SARS-CoV-2; test: SARS-CoV-2 infection rate relative to infected DMSO; higher = more infection, active = 60 or less; conditions: 24 h

[
  {
    "compound": "Cc1nc2ccc(NC(=O)Nc3ccnc4cccnc34)cc2o1 (10 µM)",
    "SARS-CoV-2 infection rate / %": 99.5
  },
  {
    "compound": "CC(C)c1noc(N2CCC(COc3ccc(-c4ccc(S(C)(=O)=O)cc4)nc3)CC2)n1 (10 µM)",
    "SARS-CoV-2 infection rate / %": 116
  },
  {
    "compound": "CNC(=O)[C@@H](c1ccccc1)N1CCc2cc(OC)c(OC)cc2[C@@H]1CCc1ccc(C(F)(F)F)cc1 [almorexant] (10 µM)",
    "SARS-CoV-2 infection rate / %": 105
  },
  {
    "compound": "CC(C)(C)NCC(O)c1cc(Br)no1 (stereo not given) [broxaterol] (10 µM)",
    "SARS-CoV-2 infection rate / %": 112
  },
  {
    "compound": "CC(=O)c1ccc2c(c1)N(CCCN1CCN(CCO)CC1)c1ccccc1S2 [acetophenazine] (10 µM)",
    "SARS-CoV-2 infection rate / %": 96.5
  },
  {
    "compound": "CN(C)CCCN1c2ccccc2Sc2ccc(Cl)cc21 [chlorpromazine] (0.833333 µM)",
    "SARS-CoV-2 infection rate / %": 98.5
  },
  {
    "compound": "O=C(Oc1ccc([N+](=O)[O-])cc1)N1CCC(C(O)(c2ccc3c(c2)OCO3)c2ccc3c(c2)OCO3)CC1 (10 µM)",
    "SARS-CoV-2 infection rate / %": 103
  },
  {
    "compound": "COc1cc(Oc2ccnc3cc(OC)c(OC)cc23)ccc1NC(=O)NC(C)c1nccs1 (stereo not given) (10 µM)",
    "SARS-CoV-2 infection rate / %": 101
  },
  {
    "compound": "Cc1csc(NC(=O)CSc2ccc(-c3ccccc3)nn2)n1 (10 µM)",
    "SARS-CoV-2 infection rate / %": 68.5
  },
  {
    "compound": "CNc1ccc([N+](=O)[O-])cc1-n1cnc(-c2ccc(C(F)(F)F)cc2)c1 (10 µM)",
    "SARS-CoV-2 infection rate / %": 97
  },
  {
    "compound": "Cc1cc2nc3c(=O)[nH]c(=O)nc-3n(C[C@H](O)[C@H](O)[C@H](O)CO)c2cc1C [riboflavin] (10 µM)",
    "SARS-CoV-2 infection rate / %": 102
  },
  {
    "compound": "CC(=O)N[C@@H](Cc1c[nH]c2ccccc12)C(=O)OCc1cc(C(F)(F)F)cc(C(F)(F)F)c1 (10 µM)",
    "SARS-CoV-2 infection rate / %": 93
  },
  {
    "compound": "S=C(S)N1CCCC1 [pyrrolidine-dithiocarbamate] (0.833333 µM)",
    "SARS-CoV-2 infection rate / %": 98
  },
  {
    "compound": "C[C@H](/C=C/[C@H](C)C(C)(C)O)[C@H]1CC[C@H]2/C(=C/C=C3C[C@@H](O)C[C@H](O)C3)CCC[C@]12C [paricalcitol] (10 µM)",
    "SARS-CoV-2 infection rate / %": 104
  },
  {
    "compound": "CO[C@H]1/C=C/O[C@@]2(C)Oc3c(C)c(O)c4c(O)c(c(/C=N/N5CCN(C)CC5)c(O)c4c3C2=O)NC(=O)/C(C)=C\\C=C\\[C@H](C)[C@H](O)[C@@H](C)[C@@H](O)[C@@H](C)[C@H](OC(C)=O)[C@@H]1C [rifampin] (0.833333 µM)",
    "SARS-CoV-2 infection rate / %": 112
  }
]

###

system: Vero E6 infected with SARS-CoV-2; experiment: morphology score (similarity to uninfected cells); higher = more like uninfected cells; conditions: 24 h
Structures can show the parent of a compound that is named as a salt.

[
  {
    "compound": "Cc1ccc(NC(=O)c2cccc(N(C)C)c2)cc1NC(=O)c1ccc(O)cc1 (10 µM)",
    "morphology score": -0.0598
  },
  {
    "compound": "COc1ccsc1CNCC[C@@]1(c2ccccn2)CCOC2(CCCC2)C1 (10 µM)",
    "morphology score": -0.0456
  },
  {
    "compound": "CN1CCN(C2=Cc3ccccc3Oc3ccc(Cl)cc32)CC1 (10 µM)",
    "morphology score": 0.217
  },
  {
    "compound": "CCOc1cncc(/C=C/CCNC)c1 (10 µM)",
    "morphology score": -0.0406
  },
  {
    "compound": "COc1c(-c2ccc3cc(NS(C)(=O)=O)ccc3c2)cc(-n2ccc(=O)[nH]c2=O)cc1C(C)(C)C [dasabuvir] (10 µM)",
    "morphology score": 0.123
  },
  {
    "compound": "Nc1c(-c2cccc(C(F)(F)F)c2)nsc1C(=O)O [amflutizole] (10 µM)",
    "morphology score": 0.00564
  },
  {
    "compound": "COc1cc(/C=C/C(=O)CC(=O)/C=C/c2ccc(O)c(OC)c2)ccc1O [curcumin] (10 µM)",
    "morphology score": 0.548
  },
  {
    "compound": "N[C@@H](CSC(c1ccccc1)(c1ccccc1)c1ccccc1)C(=O)O [S-trityl-L-cysteine] (0.833333 µM)",
    "morphology score": 0.107
  },
  {
    "compound": "OC[C@H]1NCC[C@@H](O)[C@@H]1O [fagomine] (10 µM)",
    "morphology score": -0.0114
  },
  {
    "compound": "C=C[C@H]1CN2CC[C@H]1C[C@H]2[C@H](O)c1ccnc2ccccc12 [cinchonidine] (10 µM)",
    "morphology score": -0.111
  },
  {
    "compound": "Cc1cc(C)nc(NS(=O)(=O)c2ccc(NC(=S)NC(=O)COc3ccc(Br)cc3Cl)cc2)n1 (10 µM)",
    "morphology score": 0.0709
  },
  {
    "compound": "NC(=O)OCC(COC(N)=O)c1ccccc1 [felbamate] (10 µM)",
    "morphology score": -0.0125
  },
  {
    "compound": "Nc1c(CC(=O)O)cccc1C(=O)c1ccc(Br)cc1 [bromfenac] (10 µM)",
    "morphology score": -0.048
  },
  {
    "compound": "O=P1(N(CCCl)CCCl)NCCCO1 (stereo not drawn) [cyclophosphamide] (10 µM)",
    "morphology score": 0.0658
  },
  {
    "compound": "CCCSc1nc(N[C@@H]2C[C@H]2c2ccc(F)c(F)c2)c2nnn([C@@H]3C[C@H](OCCO)[C@@H](O)[C@H]3O)c2n1 [ticagrelor] (10 µM)",
    "morphology score": -0.0229
  },
  {
    "compound": "CN(C)c1ccc(/C=C2\\CCCN=C2c2cccnc2)cc1 [DMAB-anabaseine] (10 µM)",
    "morphology score": 0.121
  },
  {
    "compound": "C[S+]([O-])c1ccc(-c2nc(-c3ccc(F)cc3)c(-c3ccncc3)[nH]2)cc1 (stereo not drawn) (10 µM)",
    "morphology score": 0.0867
  },
  {
    "compound": "CC(C)CN(C[C@@H](O)[C@H](Cc1ccccc1)NC(=O)O[C@H]1CCOC1)S(=O)(=O)c1ccc(N)cc1 [amprenavir] (10 µM)",
    "morphology score": 0.0911
  },
  {
    "compound": "CNCCc1cnc[nH]1 [N-alpha-methylhistamine-dihydrochloride] (10 µM)",
    "morphology score": -0.0409
  },
  {
    "compound": "COc1cc(-c2ccc(=O)[nH]n2)ccc1OC(F)F [zardaverine] (10 µM)",
    "morphology score": 0.289
  },
  {
    "compound": "CCc1ccc(OCc2ccccc2C(=O)Nc2ccc3nc(C)cc(N)c3c2)cc1 (0.833333 µM)",
    "morphology score": 0.313
  },
  {
    "compound": "C[C@]1(Cn2ccnn2)[C@H](C(=O)O)N2C(=O)C[C@H]2S1(=O)=O [tazobactam] (10 µM)",
    "morphology score": 0.0668
  },
  {
    "compound": "c1ccc(C(O[C@@H]2CCCN(CCc3ccc4c(c3)OCO4)C2)c2ccccc2)cc1 [zamifenacin] (10 µM)",
    "morphology score": 0.152
  },
  {
    "compound": "CN(C(=O)CN(CCO)CC(=O)N(C)C(C)(C)Cc1ccccc1)C(C)(C)Cc1ccccc1 [oxethazaine] (10 µM)",
    "morphology score": -0.169
  },
  {
    "compound": "O=C1CCc2cc(OCCCCc3nnnn3C3CCCCC3)ccc2N1 [cilostazol] (10 µM)",
    "morphology score": -0.112
  },
  {
    "compound": "Cc1cc(=O)[nH]c(=S)[nH]1 [methylthiouracil] (10 µM)",
    "morphology score": 0.0905
  },
  {
    "compound": "Cc1ccc2c(c1CCC(=O)O)CC[C@@H](NS(=O)(=O)c1ccc(Cl)cc1)C2 [terutroban] (10 µM)",
    "morphology score": 0.115
  },
  {
    "compound": "COc1ccc(-c2cnc3c(-c4cccc5ncccc45)cnn3c2)cc1 (10 µM)",
    "morphology score": 0.294
  },
  {
    "compound": "C=C[C@@]1(C)CC(=O)[C@]2(O)[C@@]3(C)[C@@H](O)CCC(C)(C)[C@@H]3[C@H](O)[C@H](OC(C)=O)[C@@]2(C)O1 [colforsin] (10 µM)",
    "morphology score": 0.455
  },
  {
    "compound": "Nc1ccn([C@@H]2CS[C@H](CO)O2)c(=O)n1 [lamivudine] (10 µM)",
    "morphology score": -0.00863
  },
  {
    "compound": "COc1ccc(C2(O)CCC(N3CC[C@@H](NC(=O)CNC(=O)c4cccc(C(F)(F)F)c4)C3)CC2)cn1 (stereo partly drawn) (10 µM)",
    "morphology score": -0.0197
  },
  {
    "compound": "CCCc1nc(C(C)(C)O)c(C(=O)OCc2oc(=O)oc2C)n1Cc1ccc(-c2ccccc2-c2nnn[nH]2)cc1 [olmesartan-medoxomil] (10 µM)",
    "morphology score": -0.0296
  },
  {
    "compound": "CN1CCN(c2ccc3nc(-c4c(N)c5c(F)cccc5[nH]c4=O)[nH]c3c2)CC1 [dovitinib] (10 µM)",
    "morphology score": -0.00197
  }
]
